Assay target: human ghrelin receptor (Homo sapiens, UniProt Q92847)
Sequence (Q92847 whole entry): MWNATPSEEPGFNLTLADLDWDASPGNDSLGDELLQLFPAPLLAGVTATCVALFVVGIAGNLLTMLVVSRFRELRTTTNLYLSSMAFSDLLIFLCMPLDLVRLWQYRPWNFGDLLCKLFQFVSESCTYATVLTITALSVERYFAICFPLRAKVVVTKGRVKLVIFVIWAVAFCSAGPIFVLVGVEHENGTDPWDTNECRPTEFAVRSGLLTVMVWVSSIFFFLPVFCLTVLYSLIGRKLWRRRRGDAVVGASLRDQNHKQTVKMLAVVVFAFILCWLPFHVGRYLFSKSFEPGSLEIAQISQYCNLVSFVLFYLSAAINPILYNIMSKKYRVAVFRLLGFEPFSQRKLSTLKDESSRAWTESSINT
Test details: Inverse agonism on basal, constitutive signalling measured by inositol phosphate turnover in transiently transfected COS-7 cells
Experimental setup: wild-type ghrelin receptor, IP turnover
Readout kind: IC50
Please format your answer as a value with the unit trailing.

INSERT INTO results (molecule, assay_target, result) VALUES
  ('[Zn+2] [Zn(II)]', 'human ghrelin receptor (Homo sapiens, UniProt Q92847)', '160 µM');

Provide IC50, recorded with human ghrelin receptor (Homo sapiens, UniProt Q92847), of O=C(O)CCc1ccc(-c2ccc(Br)cc2)n1-c1cccc(C(F)(F)F)c1 [TM27810] 6.5 µM

meta.source: patent US20060025344A1
